- Tested on: E. coli TESEC Mtb DapB
- assay_comment: growth (OD600 after 10 h); higher = more growth (less inhibition)
- measurement_parameters: arabinose induction (level): High; compound 0.1 mM; raw OD600 reference: median of DMSO wells […], cell-free background 0.041
assay_metric: growth
Reply with just the number.

Req: # query: growth of entry C[C@]12CC[C@H](O)C[C@H]1CC[C@@H]1[C@@H]2C[C@@H](O)[C@]2(C)[C@@H](C3=CC(=O)OC3)CC[C@]12O
Resp: 0.186

Req: Thanks! And CNC(C)(C)Cc1ccccc1 [Mephentermine hemisulfate] ?
Resp: 0.208

Req: Thanks! And O=[N+]([O-])O[C@@H]1CO[C@H]2[C@@H]1OC[C@@H]2O [Isosorbide mononitrate] ?
Resp: 0.176

Req: Thanks! And CN(C)[C@@H]1C(=O)C(C(N)=O)=C(O)[C@@]2(O)C(=O)C3=C(O)c4c(O)cccc4[C@@](C)(O)[C@H]3[C@H](O)[C@@H]12 [Oxytetracycline dihydrate] ?
Resp: 0.0531
